In this section, each of the sequences is paired with its reported Stability Index.
Molecular target: MHC-II DRB1*07:01 (Homo sapiens, UniProt P01903+P01911, A100R/A102G/A103Q/D57E/D86V/E43K/F76Y/K127E/L162R/M171V/P40G/Q125H/Q99D/R33Q/R42Y/R54Q/S133A/S66F/T210M/V115G/Y107V/Y59L/Y89S)
Test: Cell-free REVEAL class II stability assay
Conditions: half-life of peptide-MHC-II complex (h, capped at 120) x Binding Score / 100, conformational ELISA
Number only, no unit.

// known answers, use as guide
RSNAWRPQVNNPKEW [synthetic wild type FVIII 15 mer peptide]; 0.0
SYWKASEGAEYDDQT [synthetic wild type FVIII 15 mer peptide]; 0.0
DVRPLYSRRLPKGVK [synthetic wild type FVIII 15 mer peptide, region of ns-SNP R484H]; 0.2
DGAYAPVLQDFRSLN [synthetic wild type FVIII 15 mer peptide, region of ns-SNP D1241E]; 0.0
LFLLSTRQNVEGSYD [synthetic wild type FVIII 15 mer peptide, region of ns-SNP D1241E]; 0.3

Look at this sequence and give its reported Stability Index. SYDGAYAPVLQDFRS [synthetic wild type FVIII 15 mer peptide, region of ns-SNP D1241E]
0.0

Value lookup for Stability Index; key = PIIARYIRLHPTHYS [synthetic wild type FVIII 15 mer peptide]
0.0

Which Stability Index value belongs to DIEKTDPWFAHRTPM [synthetic wild type FVIII 15 mer peptide, region of ns-SNP R776G] ?
0.0

---

Target: MHC-II DRB1*03:01 (Homo sapiens, UniProt P01903+P01911, A100K/A102G/A103R/A169T/F55Y/I96L/K41T/L162R/M171V/P40S/Q125H/Q178H/Q39Y/R42S/S66N/T106N/T262R/W38E/Y61H)
Sequence (P01903 26-254 limits assumed, other chains not shown): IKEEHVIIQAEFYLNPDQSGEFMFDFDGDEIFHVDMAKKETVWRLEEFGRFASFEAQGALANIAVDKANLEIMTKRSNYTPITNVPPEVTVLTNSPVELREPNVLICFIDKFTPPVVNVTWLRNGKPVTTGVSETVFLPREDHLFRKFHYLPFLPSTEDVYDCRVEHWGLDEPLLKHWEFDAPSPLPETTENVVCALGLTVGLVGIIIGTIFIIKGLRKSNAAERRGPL
Test: Cell-free REVEAL class II stability assay
Conditions: half-life of peptide-MHC-II complex (h, capped at 120) x Binding Score / 100, conformational ELISA
Method: We measured the half-life of each peptide-MHC-II complex using REVEAL peptide-MHC affinity assays developed by ProImmune Ltd. (Oxford, UK). On-rates of peptides were measured over a 96-hr period at 10°C. […] Assembly of peptide-MHC complexes was detected using a conformational ELISA involving an anti-HLA antibody. On-rates were calculated by fitting data to a one-phase association curve: [drawing 1] […] Percent denaturation of peptide-MHC complexes was also detected using a conformational ELISA. […]
assay metric: Stability Index
The response must contain the number and no unit.

Below: 2 sequences and their reported Stability Index.
QKFSSLYISQFIIMY [synthetic wild type FVIII 15 mer peptide]; 0.1
RSNAWRPQVNNPKEW [synthetic wild type FVIII 15 mer peptide]; 0.0

Could you tell me which Stability Index is on file for HKMVYEDTLTLFPFS [synthetic wild type FVIII 15 mer peptide] ?
14.2

// lookup Stability Index for AVGVSYWKASEGAEY [synthetic wild type FVIII 15 mer peptide]
0.0

# Stability Index lookup, item LSTRQNVEGSYDGAY [synthetic wild type FVIII 15 mer peptide, region of ns-SNP D1241E]
0.0

---

Molecular target: MHC-II DRB1*11:01 (Homo sapiens, UniProt P01903+P01911, A100R/A169T/A87E/I96F/K41T/L162R/M171V/P40S/Q125H/Q178H/Q39Y/Q99D/R42S/S66Y/T262R/V115G/W38E)
Sequence (P01903 26-254 limits assumed, other chains not shown): as above
Experiment: Cell-free REVEAL class II binding assay
Conditions: signal of test peptide as percentage of allele-specific positive control peptide, fluorescence, conformation-specific monoclonal antibody
assay metric: Binding Score (%)
// return numeric value only (unit: %, not printed)

Worked set:
YTFKHKMVYEDTLTL [synthetic wild type FVIII 15 mer peptide]; 31.6
YISQFIIMYSLDGKK [synthetic wild type FVIII 15 mer peptide]; 114.1
YPHGITDVRPLYSRR [synthetic wild type FVIII 15 mer peptide, region of ns-SNP R484H]; 46.7

# lookup: Binding Score of LQVDFQKTMKVTGVT [synthetic wild type FVIII 15 mer peptide, region of ns-SNP M2238V]
235.0

Could you tell me which Binding Score is on file for AHRTPMPKIQNVSSS [synthetic wild type FVIII 15 mer peptide, region of ns-SNP R776G] ?
0.2

Quick check: Binding Score of GPTKSDPRCLTRYYS [synthetic wild type FVIII 15 mer peptide] ?
1.2

Which Binding Score reading was recorded for the sequence DGAYAPVLQDFRSLN [synthetic wild type FVIII 15 mer peptide, region of ns-SNP D1241E] ?
0.2

Fill in: Binding Score of SYWKASEGAEYDDQT [synthetic wild type FVIII 15 mer peptide] is ___
2.8

---

Target: MHC-II DRB1*15:03 (Homo sapiens, UniProt P01903+P01911, Y59H)
Construct: purchased ProImmune
Assay: Cell-free REVEAL class II binding assay
Details: signal of test peptide as percentage of allele-specific positive control peptide, fluorescence, conformation-specific monoclonal antibody
assay metric: Binding Score (%)
Write the value in % as a bare number.

IARYIRLHPTHYSIR [synthetic wild type FVIII 15 mer peptide]; 103.9
DGAYAPVLQDFRSLN [synthetic wild type FVIII 15 mer peptide, region of ns-SNP D1241E]; 0.1
AHRTPMPKIQNVSSS [synthetic wild type FVIII 15 mer peptide, region of ns-SNP R776G]; 0.4

# Binding Score lookup, item ASEGAEYDDQTSQRE [synthetic wild type FVIII 15 mer peptide]
0.0

# get_value(readout='Binding Score', item= MKVTGVTTQGVKSLL [synthetic wild type FVIII 15 mer peptide, region of ns-SNP M2238V] )
0.0

Any idea what its Binding Score is? The sequence is RSNAWRPQVNNPKEW [synthetic wild type FVIII 15 mer peptide]
0.0

Please report the recorded Binding Score for PLLTRYLRIHPQSWV [synthetic wild type FVIII 15 mer peptide] .
10.7

Given the sequence FSSLYISQFIIMYSL [synthetic wild type FVIII 15 mer peptide] , what is its reported Binding Score?
0.3

---

Biological target: MHC-II DRB1*04:01 (Homo sapiens, UniProt P01903+P01911, A100K/A169T/F76Y/I96L/K127E/L162R/M171V/N62H/P40V/Q125Y/R42H/S133A/S149N/S66Y/V115G/V209L/W38E)
Experiment: Cell-free REVEAL class II binding assay
Conditions: signal of test peptide as percentage of allele-specific positive control peptide, fluorescence, conformation-specific monoclonal antibody
Let's look at some sequences and their measured Binding Score.
The reply should be a number in %, with the unit left off.

GITDVRPLYSRRLPK [synthetic wild type FVIII 15 mer peptide, region of ns-SNP R484H]; 0.8
YPHGITDVRPLYSRR [synthetic wild type FVIII 15 mer peptide, region of ns-SNP R484H]; 0.1
VVNSLDPPLLTRYLR [synthetic wild type FVIII 15 mer peptide]; 1.2

We next turn to a different sequence, shown below.
Using the record for DGAYAPVLQDFRSLN [synthetic wild type FVIII 15 mer peptide, region of ns-SNP D1241E] , report its Binding Score.
0.7

---

Recorded Binding Score values for a group of sequences are listed next.
Target: MHC-II DRB1*04:01 (Homo sapiens, UniProt P01903+P01911, A100K/A169T/F76Y/I96L/K127E/L162R/M171V/N62H/P40V/Q125Y/R42H/S133A/S149N/S66Y/V115G/V209L/W38E)
Assay: Cell-free REVEAL class II binding assay
Conditions: signal of test peptide as percentage of allele-specific positive control peptide, fluorescence, conformation-specific monoclonal antibody
Response body: numeric value in %, unit text excluded.

These solved cases illustrate the format of a correct answer.
AVGVSYWKASEGAEY [synthetic wild type FVIII 15 mer peptide]; 2.0
IARYIRLHPTHYSIR [synthetic wild type FVIII 15 mer peptide]; 61.3
NNPKEWLQVDFQKTM [synthetic wild type FVIII 15 mer peptide, region of ns-SNP M2238V]; 1.7
PENDIEKTDPWFAHR [synthetic wild type FVIII 15 mer peptide, region of ns-SNP R776G]; 0.7
FSSLYISQFIIMYSL [synthetic wild type FVIII 15 mer peptide]; 1.5

I have this sequence here, SDPRCLTRYYSSFVN [synthetic wild type FVIII 15 mer peptide] , and I need its recorded Binding Score.
2.4

Given KMVYEDTLTLFPFSG [synthetic wild type FVIII 15 mer peptide] , state its recorded Binding Score.
29.7

Which Binding Score value is on record for SQFIIMYSLDGKKWQ [synthetic wild type FVIII 15 mer peptide] ?
38.1

Look at this sequence and give its reported Binding Score. LFLLSTRQNVEGSYD [synthetic wild type FVIII 15 mer peptide, region of ns-SNP D1241E]
17.9

Which Binding Score is listed for KTDPWFAHRTPMPKI [synthetic wild type FVIII 15 mer peptide, region of ns-SNP R776G] ?
8.2
